Readings of pEC50 for the listed compounds
# Tested on: HT-29
# assay: Anti-necroptosis activity against human HT-29 cells assessed as inhibition of TSZ-induced necroptosis preincubated for 30 mins followed by compound addition and measured for 16 hrs by Cell-titer-glo assay
# Format: functional, cell-based
Units for pEC50: none; it is -log10 of a concentration expressed in mol/L.

chem-smiles: COC(=O)c1ccc(C#Cc2ccc3c(c2)N(C)C(=S)[C@@H](NC(=O)c2n[nH]c(Cc4ccccc4)n2)CO3)cc1
pEC50: 8.24
--
chem-smiles: Cc1ccc(C#Cc2ccc3c(c2)N(C)C(=S)[C@@H](NC(=O)c2n[nH]c(Cc4ccccc4)n2)CO3)cc1
pEC50: 7.76
--
chem-smiles: CN1C(=S)[C@@H](NC(=O)c2n[nH]c(Cc3ccccc3)n2)COc2ccc(C#Cc3cccc([N+](=O)[O-])c3)cc21
pEC50: 8.04

QUERY: For the compound `Cc1cccc(C#Cc2ccc3c(c2)N(C)C(=S)[C@@H](NC(=O)c2n[nH]c(Cc4ccccc4)n2)CO3)c1` , what pEC50 is on record?
RESULT: 7.56

QUERY: For the compound `CN1C(=S)[C@@H](NC(=O)c2n[nH]c(Cc3ccccc3)n2)COc2ccc(C#Cc3cccc(C#N)c3)cc21` , what pEC50 is on record?
RESULT: 8.49

QUERY: For the compound `CN1C(=S)[C@@H](NC(=O)c2n[nH]c(Cc3ccccc3)n2)COc2ccc(C#Cc3ccc(F)cc3)cc21` , what pEC50 is on record?
RESULT: 7.65

QUERY: For the compound `CN1C(=S)[C@@H](NC(=O)c2n[nH]c(Cc3ccccc3)n2)COc2ccc(C#Cc3ccc(Cl)cc3)cc21` , what pEC50 is on record?
RESULT: 7.50

QUERY: For the compound `CN1C(=S)[C@@H](NC(=O)c2n[nH]c(Cc3ccccc3)n2)COc2ccc(C#Cc3ccc(C#N)cc3)cc21` , what pEC50 is on record?
RESULT: 8.20

Reference source for all entries: ChEMBL document CHEMBL5316334
